Tested on: MPNST complex spheroid with HUVEC/MSC, growth, % test/control
Assay: Anticancer human tumor MPNST cell line growth inhibition [Asc];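 also: compounds left on spheroids for seven days before reading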
Conditions: second compound 1 µM; first compound 0.0316 µM; stronger effect = lower value
From the text: Multicellular complex tumor spheroid response to apoptosis pathway targeting inhibitors Alrizomadlin, Pelcitoclax, and Dasminapant in combination with a variety of drugs and investigational agents in selected tumor cell lines […] Compounds. […] If the clinical Cmax for an agent had not been determined, the highest concentration tested was 10 microM. […]
PARAMETER: viability, T/C (%)
One number for each entry, in %.

# map each compound to its viability, T/C
1. COc1c(OCCCN2CCOCC2)ccc2c3n(c(=NC(=O)c4cnc(N)nc4)nc12)CCN3 + Cc1c(S(C)(=O)=O)c(-c2cc(F)cc(N3CCN(c4ccc(NS(=O)(=O)c5ccc(NC(CCN6CCC(C(=O)OCCCP(=O)(O)O)CC6)CSc6ccccc6)c(S(=O)(=O)C(F)(F)F)c5)cc4)CC3)c2)c(-c2ccc(Cl)cc2)n1C(C)C
2. O=C(c1cc(Cc2n[nH]c(=O)c3ccccc23)ccc1F)N1CCN(C(=O)C2CC2)CC1 + CNC(C)C(=O)NC1CN(S(=O)(=O)c2cccc(S(=O)(=O)N3CCC4CCC(C(=O)NC(c5ccccc5)c5ccccc5)N4C(=O)C(NC(=O)C(C)NC)C3)c2)CCC2CCC(C(=O)NC(c3ccccc3)c3ccccc3)N2C1=O
3. COc1c(OCCCN2CCOCC2)ccc2c3n(c(=NC(=O)c4cnc(N)nc4)nc12)CCN3 + CNC(C)C(=O)NC1CN(S(=O)(=O)c2cccc(S(=O)(=O)N3CCC4CCC(C(=O)NC(c5ccccc5)c5ccccc5)N4C(=O)C(NC(=O)C(C)NC)C3)c2)CCC2CCC(C(=O)NC(c3ccccc3)c3ccccc3)N2C1=O

Reply |
[62.4, 75.8, 32]

====

tested on: MPNST complex spheroid with HUVEC/MSC, growth, % test/control; assay: Anticancer human tumor MPNST cell line growth inhibition [Asc]; conditions: second compound 0.316 µM; first compound 0.03 µM; stronger effect = lower value;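 also: compounds left on spheroids for seven days before reading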
PARAMETER: viability, T/C (%)
One number for each entry, in %.

# map each molecule to its viability, T/C
1. NC(=O)C(=Cn1cnc(-c2cc(C(F)(F)F)cc(C(F)(F)F)c2)n1)c1cncnc1 + Cc1c(S(C)(=O)=O)c(-c2cc(F)cc(N3CCN(c4ccc(NS(=O)(=O)c5ccc(NC(CCN6CCC(C(=O)OCCCP(=O)(O)O)CC6)CSc6ccccc6)c(S(=O)(=O)C(F)(F)F)c5)cc4)CC3)c2)c(-c2ccc(Cl)cc2)n1C(C)C
2. NC(=O)C(=Cn1cnc(-c2cc(C(F)(F)F)cc(C(F)(F)F)c2)n1)c1cncnc1 + CNC(C)C(=O)NC1CN(S(=O)(=O)c2cccc(S(=O)(=O)N3CCC4CCC(C(=O)NC(c5ccccc5)c5ccccc5)N4C(=O)C(NC(=O)C(C)NC)C3)c2)CCC2CCC(C(=O)NC(c3ccccc3)c3ccccc3)N2C1=O
3. CCN1C(C(=O)NC23CCC(C(=O)O)(CC2)CC3)C(c2cccc(Cl)c2F)C2(C(=O)Nc3cc(Cl)ccc32)C12CCCCC2 (stereo not drawn) + CNC(C)C(=O)NC1CN(S(=O)(=O)c2cccc(S(=O)(=O)N3CCC4CCC(C(=O)NC(c5ccccc5)c5ccccc5)N4C(=O)C(NC(=O)C(C)NC)C3)c2)CCC2CCC(C(=O)NC(c3ccccc3)c3ccccc3)N2C1=O

Reply |
1. 64.3
2. 46
3. 71.5

====

system: MPNST complex spheroid with HUVEC/MSC, growth, % test/control; assay: Anticancer human tumor MPNST cell line growth inhibition [Asc]; details: second compound 1 µM; first compound 1 µM; stronger effect = lower value;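 also: compounds left on spheroids for seven days before reading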
PARAMETER: viability, T/C (%)
One number for each entry, in %.

Study these solved cases before continuing.
>>> recorded_measurement("O=C(c1cc(Cc2n[nH]c(=O)c3ccccc23)ccc1F)N1CCN(C(=O)C2CC2)CC1 + CNC(C)C(=O)NC1CN(S(=O)(=O)c2cccc(S(=O)(=O)N3CCC4CCC(C(=O)NC(c5ccccc5)c5ccccc5)N4C(=O)C(NC(=O)C(C)NC)C3)c2)CCC2CCC(C(=O)NC(c3ccccc3)c3ccccc3)N2C1=O")
68.2
>>> recorded_measurement("O=C(c1ccc(F)c(F)c1Nc1ccc(I)cc1F)N1CC(O)([C@@H]2CCCCN2)C1 + CNC(C)C(=O)NC1CN(S(=O)(=O)c2cccc(S(=O)(=O)N3CCC4CCC(C(=O)NC(c5ccccc5)c5ccccc5)N4C(=O)C(NC(=O)C(C)NC)C3)c2)CCC2CCC(C(=O)NC(c3ccccc3)c3ccccc3)N2C1=O")
45.2
>>> recorded_measurement("CNC(C)C(=O)NC1CN(S(=O)(=O)c2cccc(S(=O)(=O)N3CCC4CCC(C(=O)NC(c5ccccc5)c5ccccc5)N4C(=O)C(NC(=O)C(C)NC)C3)c2)CCC2CCC(C(=O)NC(c3ccccc3)c3ccccc3)N2C1=O (centres undefined) + Cc1c(S(C)(=O)=O)c(-c2cc(F)cc(N3CCN(c4ccc(NS(=O)(=O)c5ccc(NC(CCN6CCC(C(=O)OCCCP(=O)(O)O)CC6)CSc6ccccc6)c(S(=O)(=O)C(F)(F)F)c5)cc4)CC3)c2)c(-c2ccc(Cl)cc2)n1C(C)C")
160

// below: viability, T/C requested for another compound
Ask | Using the record for CCN1CCN(Cc2ccc(Nc3ncc(F)c(-c4cc(F)c5nc(C)n(C(C)C)c5c4)n3)nc2)CC1 + CNC(C)C(=O)NC1CN(S(=O)(=O)c2cccc(S(=O)(=O)N3CCC4CCC(C(=O)NC(c5ccccc5)c5ccccc5)N4C(=O)C(NC(=O)C(C)NC)C3)c2)CCC2CCC(C(=O)NC(c3ccccc3)c3ccccc3)N2C1=O , report its viability, T/C.
Reply | 68.7

====

tested on: MPNST complex spheroid with HUVEC/MSC, growth, % test/control; test: Anticancer human tumor MPNST cell line growth inhibition [Asc]; conditions: curve of first compound; second compound 0.1 µM;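 also: compounds left on spheroids for seven days before reading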
PARAMETER: pIC50
Numbers only, as −log10 of the molar value.

>>> recorded_measurement("O=C(c1ccc(F)c(F)c1Nc1ccc(I)cc1F)N1CC(O)([C@@H]2CCCCN2)C1 + Cc1c(S(C)(=O)=O)c(-c2cc(F)cc(N3CCN(c4ccc(NS(=O)(=O)c5ccc(NC(CCN6CCC(C(=O)OCCCP(=O)(O)O)CC6)CSc6ccccc6)c(S(=O)(=O)C(F)(F)F)c5)cc4)CC3)c2)c(-c2ccc(Cl)cc2)n1C(C)C")
6.52

// below: pIC50 requested for another compound
Ask | Using the record for C=C(F)C(=O)N1CCN(c2nc(OCC3CCCN3C)nc3c2CCN(c2cccc4cccc(Cl)c24)C3)CC1CC#N (centres undefined) + CNC(C)C(=O)NC1CN(S(=O)(=O)c2cccc(S(=O)(=O)N3CCC4CCC(C(=O)NC(c5ccccc5)c5ccccc5)N4C(=O)C(NC(=O)C(C)NC)C3)c2)CCC2CCC(C(=O)NC(c3ccccc3)c3ccccc3)N2C1=O , report its pIC50.
Reply | 5.45

====

system: MPNST complex spheroid with HUVEC/MSC, growth, % test/control; experiment: Anticancer human tumor MPNST cell line growth inhibition [Asc]; details: second compound 0.03 µM; first compound 0.1 µM; stronger effect = lower value;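 also: compounds left on spheroids for seven days before reading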
Provide the recorded viability, T/C for the entries that follow.
One number for each entry, in %.

Study these solved cases before continuing.
>>> recorded_measurement("O=C(c1ccc(F)c(F)c1Nc1ccc(I)cc1F)N1CC(O)([C@@H]2CCCCN2)C1 + CCN1C(C(=O)NC23CCC(C(=O)O)(CC2)CC3)C(c2cccc(Cl)c2F)C2(C(=O)Nc3cc(Cl)ccc32)C12CCCCC2")
95.9
>>> recorded_measurement("C#Cc1c(F)ccc2cc(O)cc(-c3ncc4c(N5CC6CCC(C5)N6)nc(OCC56CCCN5CC(F)C6)nc4c3F)c12 (centres undefined) + CCN1C(C(=O)NC23CCC(C(=O)O)(CC2)CC3)C(c2cccc(Cl)c2F)C2(C(=O)Nc3cc(Cl)ccc32)C12CCCCC2")
72.9
>>> recorded_measurement("C=C(F)C(=O)N1CCN(c2nc(OCC3CCCN3C)nc3c2CCN(c2cccc4cccc(Cl)c24)C3)CC1CC#N (centres undefined) + CCN1C(C(=O)NC23CCC(C(=O)O)(CC2)CC3)C(c2cccc(Cl)c2F)C2(C(=O)Nc3cc(Cl)ccc32)C12CCCCC2")
61.1

// below: viability, T/C requested for another molecule
Ask | Using the record for CNC(C)C(=O)NC1CN(S(=O)(=O)c2cccc(S(=O)(=O)N3CCC4CCC(C(=O)NC(c5ccccc5)c5ccccc5)N4C(=O)C(NC(=O)C(C)NC)C3)c2)CCC2CCC(C(=O)NC(c3ccccc3)c3ccccc3)N2C1=O (centres undefined) + CCN1C(C(=O)NC23CCC(C(=O)O)(CC2)CC3)C(c2cccc(Cl)c2F)C2(C(=O)Nc3cc(Cl)ccc32)C12CCCCC2 , report its viability, T/C.
Reply | 114

====

tested on: MPNST complex spheroid with HUVEC/MSC, growth, % test/control; experiment: Anticancer human tumor MPNST cell line growth inhibition [Asc]; conditions: second compound 10 µM; first compound 0.1 µM; stronger effect = lower value;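 also: compounds left on spheroids for seven days before reading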
PARAMETER: viability, T/C (%)
One number for each entry, in %.

>>> recorded_measurement("NC1CCC(NC2CC2c2ccccc2)CC1 (configuration not stated) + Cc1c(S(C)(=O)=O)c(-c2cc(F)cc(N3CCN(c4ccc(NS(=O)(=O)c5ccc(NC(CCN6CCC(C(=O)OCCCP(=O)(O)O)CC6)CSc6ccccc6)c(S(=O)(=O)C(F)(F)F)c5)cc4)CC3)c2)c(-c2ccc(Cl)cc2)n1C(C)C")
62

// below: viability, T/C requested for another compound
Ask | Using the record for CCN1CCN(Cc2ccc(Nc3ncc(F)c(-c4cc(F)c5nc(C)n(C(C)C)c5c4)n3)nc2)CC1 + Cc1c(S(C)(=O)=O)c(-c2cc(F)cc(N3CCN(c4ccc(NS(=O)(=O)c5ccc(NC(CCN6CCC(C(=O)OCCCP(=O)(O)O)CC6)CSc6ccccc6)c(S(=O)(=O)C(F)(F)F)c5)cc4)CC3)c2)c(-c2ccc(Cl)cc2)n1C(C)C , report its viability, T/C.
Reply | 52.8
